Just for reference, patent US9833497B2 is where these values come from.

Please respond with reported MIC (μg/mL) P. vulgaris for every item in the list.
System: Proteus vulgaris
Test: MIC against Gram-negative bacteria: Proteus vulgaris
Type: cell-based
Settings: Proteus vulgaris; 96-well plate, 5×10^5 CFU/mL, 37° C., 10 h

Past entries and their recorded results:
Record PRT82 (CDCYPTGSLSRVCDPEDGQCPCKPGVIGRQCDRCDNPFAEVTTNGCEV; listed as Homo sapiens) : what is its MIC (μg/mL) P. vulgaris with Proteus vulgaris?
12.5 µg/mL

Please give the result for PRT42 (CQCNGHSKCINQSICEKCENLTTGKHCETCISGFYGDPTNGGKCQP; listed as Homo sapiens) too.
100 µg/mL

Please give the result for PRT72 (NKLDLPCPRGWWGNPVCGPCHCAVSKGFDPDCN; listed as Homo sapiens) too.
25 µg/mL

Please give the result for PRT119 (CAPCPNNGRPTLSGTECLCVCQSGTYGENCE; listed as Homo sapiens) too.
12.5 µg/mL

Please give the result for PRT95 (DINECETGQHNCVPNSVCINTRGSFQCGPCQPGFVGDQASGCQ; listed as Homo sapiens) too.
50 µg/mL

Hi, could you look up MIC (μg/mL) P. vulgaris for each item in my list?
1. PRT45 (SINSCPNNCSGHGKCTTSVSVPSQVYCECDKYWKGEACD; listed as Homo sapiens)
2. PRT30 (PCDCYPVGSTSRSCAPHSGQCPCRPGALGRQCNSCDSPF; listed as Homo sapiens)

["12.5 µg/mL", "25 µg/mL"]
